Each recorded value in this set is attributed to ChEMBL document CHEMBL3137667.

Reported Conditions: human, serum
Entries and their Hepatotoxicity (moderate)

Query Sequence | Hepatotoxicity (moderate)
INTERLEUKIN 6 | 9
COLISTIN | 1
GEMTUZUMAB OZOGAMICIN | 7
ADALIMUMAB | 1
STREPTOKINASE | 12
SPIRAMYCIN | 0
UROKINASE | 0
PENTOSAN POLYSULFATE SODIUM | 5
RITUXIMAB | 1
LOBAPLATIN | 1

###

Assay Overview: Times to onset, minimal and maximal, observed in the indexed observations. [column 'DELAI' in source]
Reported Conditions: human
Entries and their Hepatotoxicity (time to onset)
Test Readout: Hepatotoxicity (time to onset)

Compound | Test Readout | Meas Value
Nc1nc(Cl)nc2c1ncn2[C@H]1C[C@H](O)[C@@H](CO)O1 [CLADRIBINE] | Hepatotoxicity (time to onset) | 2 weeks - 6 months
Nc1cc(-c2ccncc2)c[nH]c1=O [INAMRINONE] | Hepatotoxicity (time to onset) | 1 week - 3 weeks
COCC(=O)Nc1c(I)c(C(=O)NCC(O)CO)c(I)c(C(=O)N(C)CC(O)CO)c1I (centres undefined) [IOPROMIDE] | Hepatotoxicity (time to onset) | < 1 days
CCN(CC)CCOC(=O)[C@@H](Cc1cccc2ccccc12)C[C@@H]1CCCO1 [NAFTIDROFURYL] | Hepatotoxicity (time to onset) | 7 weeks - 4.3 months
COc1ccc(NS(=O)(=O)c2ccc(N)cc2)nn1 [SULFAMETHOXYPYRIDAZINE] | Hepatotoxicity (time to onset) | 1 month - 2 months
CCCCNC(=O)NS(=O)(=O)c1ccc(N)cc1 [CARBUTAMIDE] | Hepatotoxicity (time to onset) | 2 weeks - 4 weeks
CC1(C)S[C@@H]2[C@H](NC(=O)C(C(=O)O)c3ccccc3)C(=O)N2[C@H]1C(=O)O (some centres undefined) [CARBENICILLIN] | Hepatotoxicity (time to onset) | 4 days - 3 months
CCN1CC(CCN2CCOCC2)C(c2ccccc2)(c2ccccc2)C1=O (centres undefined) [DOXAPRAM] | Hepatotoxicity (time to onset) | 1 day - 5 days
CCS(=O)(=O)CCn1c([N+](=O)[O-])cnc1C [TINIDAZOLE] | Hepatotoxicity (time to onset) | 1 week

###

Reported Conditions: human, serum
Threshold 1. Hepatotoxicity (moderate) below it: T. Hepatotoxicity (moderate) at it or above: F.

Compound | Class Name
C[C@@H](c1ncncc1F)[C@](O)(Cn1cncn1)c1ccc(F)cc1F | F
CO[C@H]1C[C@H](O[C@H]2[C@H](C)[C@@H](O[C@@H]3O[C@H](C)C[C@H](N(C)C)[C@H]3OC(C)=O)[C@@H](C)C[C@@]3(CO3)C(=O)[C@H](C)[C@@H](OC(C)=O)[C@@H](C)[C@@H](C)OC(=O)[C@@H]2C)O[C@@H](C)[C@@H]1OC(C)=O | F
CNC(=O)c1c(I)c(C(=O)NCC(=O)Nc2c(I)c(C(=O)O)c(I)c(C(=O)NCCO)c2I)c(I)c(N(C)C(C)=O)c1I | T
COc1ccc(Cc2nccc3cc(OC)c(OC)cc23)cc1OC | F
NC(CO)C(=O)NNCc1ccc(O)c(O)c1O (stereo unspecified) [BENSERAZIDE] | T
C[C@H](CCC(=O)O)[C@H]1CC[C@H]2[C@@H]3[C@@H](O)C[C@@H]4C[C@H](O)CC[C@]4(C)[C@H]3CC[C@]12C | F
COC(=O)C1=C(C)NC(C)=C(C(=O)OCCN(C)Cc2ccccc2)C1c1cccc([N+](=O)[O-])c1 (stereo unspecified) | F
Nc1nc(=O)[nH]cc1F | F
O=c1[nH]c2ccccc2n1C1CCN(CCCC(c2ccc(F)cc2)c2ccc(F)cc2)CC1 [PIMOZIDE] | F
COc1ccc2c(c1)c(CC(=O)O)c(C)n2C(=O)c1ccc(Cl)cc1 | F
COc1cc(NC(C)CCCN)c2ncccc2c1 (stereo unspecified) | T
N=C(N)NC(=O)c1nc(Cl)c(N)nc1N [AMILORIDE] | F
